Target: ATP-dependent translocase ABCB1 (Homo sapiens, UniProt P08183)
Sequence (P08183 whole entry): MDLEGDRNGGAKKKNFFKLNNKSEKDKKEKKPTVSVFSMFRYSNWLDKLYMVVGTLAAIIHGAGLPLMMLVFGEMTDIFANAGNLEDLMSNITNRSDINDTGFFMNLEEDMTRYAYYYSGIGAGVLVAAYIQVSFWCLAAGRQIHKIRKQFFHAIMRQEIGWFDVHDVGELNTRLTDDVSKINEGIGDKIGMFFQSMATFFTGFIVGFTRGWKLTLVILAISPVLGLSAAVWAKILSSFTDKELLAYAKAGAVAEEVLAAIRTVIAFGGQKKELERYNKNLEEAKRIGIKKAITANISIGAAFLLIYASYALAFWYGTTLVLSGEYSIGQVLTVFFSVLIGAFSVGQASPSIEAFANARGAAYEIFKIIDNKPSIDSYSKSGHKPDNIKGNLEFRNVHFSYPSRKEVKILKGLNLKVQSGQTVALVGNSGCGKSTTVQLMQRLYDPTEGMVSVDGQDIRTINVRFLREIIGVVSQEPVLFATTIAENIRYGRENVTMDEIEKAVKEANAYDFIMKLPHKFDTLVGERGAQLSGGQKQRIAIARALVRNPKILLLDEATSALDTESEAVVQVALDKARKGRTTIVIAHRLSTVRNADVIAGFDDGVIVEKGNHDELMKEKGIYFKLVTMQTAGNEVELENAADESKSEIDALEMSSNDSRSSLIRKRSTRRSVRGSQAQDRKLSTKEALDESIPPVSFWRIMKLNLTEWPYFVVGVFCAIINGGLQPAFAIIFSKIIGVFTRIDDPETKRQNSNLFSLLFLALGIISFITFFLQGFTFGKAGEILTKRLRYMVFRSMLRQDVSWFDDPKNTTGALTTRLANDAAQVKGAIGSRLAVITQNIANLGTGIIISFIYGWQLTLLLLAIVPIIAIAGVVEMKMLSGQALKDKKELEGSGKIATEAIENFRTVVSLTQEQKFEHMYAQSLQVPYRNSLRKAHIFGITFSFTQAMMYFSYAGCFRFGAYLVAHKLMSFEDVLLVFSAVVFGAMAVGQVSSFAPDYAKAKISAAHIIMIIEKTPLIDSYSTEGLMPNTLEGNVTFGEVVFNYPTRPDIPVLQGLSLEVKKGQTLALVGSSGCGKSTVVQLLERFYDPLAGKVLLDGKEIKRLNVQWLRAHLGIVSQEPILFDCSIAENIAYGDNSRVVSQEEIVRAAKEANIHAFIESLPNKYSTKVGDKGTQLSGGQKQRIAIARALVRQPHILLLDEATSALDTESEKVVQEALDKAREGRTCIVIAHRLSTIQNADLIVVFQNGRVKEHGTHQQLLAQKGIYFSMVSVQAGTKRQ
Experiment: Inhibition of P-gp overexpressed in human 12D7-MDR cells assessed as inhibition of NBD-Aba efflux after 30 mins by flow cytometry
Assay type: cell-based
ASSAY METRIC: IC50 (nM)

The cases that follow already have their IC50 on record.
Nc1nc(NC2CC2)c2ncn([C@H]3C=C[C@@H](COC(=O)CCCCCCCC(=O)OC[C@@H]4C=C[C@H](n5cnc6c(NC7CC7)nc(N)nc65)C4)C3)c2n1 | 2600
Nc1nc(NC2CC2)c2ncn([C@H]3C=C[C@@H](COC(=O)CCCCCCCCCCC(=O)OC[C@@H]4C=C[C@H](n5cnc6c(NC7CC7)nc(N)nc65)C4)C3)c2n1 | 1800

a. Nc1nc(NC2CC2)c2ncn([C@H]3C=C[C@@H](COC(=O)CCCCCC(=O)OC[C@@H]4C=C[C@H](n5cnc6c(NC7CC7)nc(N)nc65)C4)C3)c2n1
b. Nc1nc(NC2CC2)c2ncn([C@H]3C=C[C@@H](COC(=O)CCCCCCCCC(=O)OC[C@@H]4C=C[C@H](n5cnc6c(NC7CC7)nc(N)nc65)C4)C3)c2n1
Field: entry with larger IC50 (options a / b ). Select an item and report its label. a
(a: 10500 nM, b: 2100 nM)
